# target.entity: G-protein-linked cannabinoid receptors (Rattus norvegicus)
# Construct: tissue Charles River or Pel-Freez Biologicals; host or cells: whole rat brain crude membrane homogenate
# Sequence (P20272 whole entry): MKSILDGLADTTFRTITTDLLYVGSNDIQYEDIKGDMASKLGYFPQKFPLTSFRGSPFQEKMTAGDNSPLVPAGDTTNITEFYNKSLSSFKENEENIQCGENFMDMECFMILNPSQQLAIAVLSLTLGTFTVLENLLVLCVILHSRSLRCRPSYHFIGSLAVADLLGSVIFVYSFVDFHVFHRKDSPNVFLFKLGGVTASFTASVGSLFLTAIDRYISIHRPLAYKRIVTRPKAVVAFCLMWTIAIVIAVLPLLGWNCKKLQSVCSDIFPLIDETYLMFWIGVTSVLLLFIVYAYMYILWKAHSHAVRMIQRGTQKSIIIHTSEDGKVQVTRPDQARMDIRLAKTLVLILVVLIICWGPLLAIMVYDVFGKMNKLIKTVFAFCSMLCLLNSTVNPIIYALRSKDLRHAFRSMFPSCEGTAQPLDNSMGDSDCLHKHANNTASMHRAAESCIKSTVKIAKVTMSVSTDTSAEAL
# experiment.description: GTP-γ-[35S] binding in whole rat brain
# Format: biochemical
# condition.summary: whole rat brain membranes; inverse agonist/antagonist activity; read-out: EC50, GTP-γ-[35S] in Whole Rat Brain
pEC50: −log10 of the molar value.
The threshold is inclusive: pEC50 of exactly 4 counts as Satisfied; values below receive Not satisfied.

Record excerpt, results attached:
INSERT INTO results (molecule, class) VALUES
  ('CCCCCCNC(=O)c1nn(-c2ccc(Cl)cc2Cl)c(-c2ccc(Cl)cc2)c1C', 'Satisfied'),
  ('CCCCNC(=O)c1nn(-c2ccc(Cl)cc2Cl)c(-c2ccc(Cl)cc2)c1C', 'Satisfied'),
  ('Cc1c(C(=O)NC(C)CO)nn(-c2ccc(Cl)cc2Cl)c1-c1ccc(Cl)cc1 (single isomer, unassigned) [MF9725-105-38]', 'Not satisfied'),
  ('Cc1c(C(=O)NC2CCCCC2)nn(-c2ccc(Cl)cc2Cl)c1-c1ccc(Cl)cc1', 'Satisfied'),
  ('Cc1c(C(=O)NC(C)C)nn(-c2ccc(Cl)cc2Cl)c1-c1ccc(Cl)cc1', 'Satisfied');

Request: Could you tell me if the measured pEC50 of Cc1c(C(=O)NCC(C)C)nn(-c2ccc(Cl)cc2Cl)c1-c1ccc(Cl)cc1 reaches 4 or more?
Response: Satisfied

Request: Could you tell me if the measured pEC50 of Cc1c(C(=O)NN2CCCCC2)nn(-c2ccccc2)c1-c1ccc(Cl)cc1 reaches 4 or more?
Response: Not satisfied

Request: Could you tell me if the measured pEC50 of Cc1c(C(=O)NN2CCOCC2)nn(-c2ccc(Cl)cc2Cl)c1-c1ccc(Cl)cc1 [MF9725-33D] reaches 4 or more?
Response: Satisfied

Request: Could you tell me if the measured pEC50 of CCNC(=O)c1nn(-c2ccc(Cl)cc2Cl)c(-c2ccc(Cl)cc2)c1C [MF9725-54C] reaches 4 or more?
Response: Satisfied

Request: Could you tell me if the measured pEC50 of Cc1c(C(=O)NC(C)CO)nn(-c2ccc(Cl)cc2Cl)c1-c1ccc(Cl)cc1 (single isomer, unassigned) [MF9725-106-39] reaches 4 or more?
Response: Not satisfied

Request: Could you tell me if the measured pEC50 of Cc1c(C(=O)NCCCCO)nn(-c2ccc(Cl)cc2Cl)c1-c1ccc(Cl)cc1 reaches 4 or more?
Response: Not satisfied

Request: Could you tell me if the measured pEC50 of CCCCCCCn1nc(C(=O)NN2CCCCC2)c(C)c1-c1ccc(Cl)cc1 reaches 4 or more?
Response: Not satisfied

Request: Could you tell me if the measured pEC50 of CCCCCCn1nc(C(=O)NN2CCCCC2)c(C)c1-c1ccc(Cl)cc1 reaches 4 or more?
Response: Satisfied

Request: Could you tell me if the measured pEC50 of Cc1c(C(=O)NCCCO)nn(-c2ccc(Cl)cc2Cl)c1-c1ccc(Cl)cc1 reaches 4 or more?
Response: Not satisfied

Request: Could you tell me if the measured pEC50 of CCCNC(=O)c1nn(-c2ccc(Cl)cc2Cl)c(-c2ccc(Cl)cc2)c1C [MF9725-55C] reaches 4 or more?
Response: Satisfied
